- System: human γ-globin promoter (EGFP reporter) in K562 cells
- test_protocol: HbF activation assay on K562 (EGFP/RFP reporter model system for screening of inducers of fetal hemoglobin)
- Assay type: cell-based
- settings: 60 hours
Provide the recorded EC50 for the entries that follow.

## Input Recorded EC50 for `CCC(=O)CCCCC[C@H](NC(=O)CCN(C)C)c1nnc(-c2cc3ccccc3nc2OC)o1` , please?
## Output > 1000 nM

## Input Recorded EC50 for `CCC(=O)CCCCC[C@H](NC(=O)CCn1c(CC)nc2ccccc21)c1ncc(-c2cc3ccccc3nc2OC)o1` , please?
## Output 100 to 1000 nM

## Input Recorded EC50 for `CCC(=O)CCCCC[C@H](NC(=O)C(=O)N(C)C)c1nnc(-c2cc3ccccc3nc2OC)o1` , please?
## Output > 1000 nM

## Input Recorded EC50 for `CCC(=O)CCCCC[C@H](NC(=O)c1cncs1)c1ncc(-c2cc3ccccc3n(C)c2=O)o1` , please?
## Output 100 to 1000 nM

## Input Recorded EC50 for `CCC(=O)CCCCC[C@H](NC(=O)CCn1ccnc1)c1ncc(-c2cc3ccccc3nc2OC)o1` , please?
## Output 100 to 1000 nM

## Input Recorded EC50 for `CCC(=O)CCCCC[C@H](NC(=O)CCN(C)C)c1ncc(-c2cc3ccccc3n(C)c2=O)o1` , please?
## Output < 100 nM

## Input Recorded EC50 for `CCC(=O)CCCCC[C@H](NC(=O)[C@@H]1CC(F)(F)CN1C)c1ncc(-c2cc3ccccc3nc2OC)o1` , please?
## Output > 1000 nM

## Input Recorded EC50 for `CCC(=O)CCCCC[C@H](NC(=O)CCc1cnn(C)c1)c1ncc(-c2cc3ccccc3nc2OC)o1` , please?
## Output 100 to 1000 nM

## Input Recorded EC50 for `CCC(=O)CCCCC[C@H](NC(=O)C1CN(C)C1)c1ncc(-c2ccc(-c3ccn[nH]3)cc2)o1` , please?
## Output > 1000 nM

## Input Recorded EC50 for `CCC(=O)CCCCC[C@H](NC(=O)c1cc(C)nn1C)c1ncc(-c2cc3ccccc3nc2OC)o1` , please?
## Output > 1000 nM

## Input Recorded EC50 for `CCC(=O)CCCCC[C@H](NC(=O)Cc1c[nH]cn1)c1ncc(-c2cc3ccccc3nc2OC)o1` , please?
## Output > 1000 nM

## Input Recorded EC50 for `CCC(=O)CCCCC[C@H](NC(=O)CCN(C)C)c1ncc(-c2ccccc2)o1` , please?
## Output > 1000 nM

## Input Recorded EC50 for `CCC(=O)CCCCC[C@H](NC(=O)C1CN(C)C1)c1ncc(-c2ccc(-c3ccc(OC)nc3)cc2)o1` , please?
## Output > 1000 nM

## Input Recorded EC50 for `CCC(=O)CCCCC[C@H](NC(=O)C(C)(C)N(C)C)c1ncc(-c2ccccc2)o1` , please?
## Output > 1000 nM

## Input Recorded EC50 for `CCC(=O)CCCCC[C@H](NC(=O)Cc1nccs1)c1ncc(-c2cc3ccccc3nc2OC)o1` , please?
## Output > 1000 nM

## Input Recorded EC50 for `CCC(=O)CCCCC[C@H](NC(=O)C(=O)N1CCOCC1)c1ncc(-c2cc3ccccc3nc2OC)o1` , please?
## Output > 1000 nM

## Input Recorded EC50 for `CCC(=O)CCCCC[C@H](NC(=O)C1CN(C)C1)c1nnc(-c2cc3ccccc3nc2OC)o1` , please?
## Output > 1000 nM

## Input Recorded EC50 for `CCC(=O)CCCCC[C@H](NC(=O)c1ccnn1C)c1ncc(-c2cc3ccccc3nc2OC)o1` , please?
## Output 100 to 1000 nM
